# experiment: MM1S cell viability effects, profiling panel, calcein-AM fluorescence, 48 h, basal (AID 1165);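 further: viability of MM1S multiple myeloma cells under basal unstimulated conditions; test concentration not given here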
# conditionDescription: higher = more signal
valueKind: z-score
Reply with just the number.

# compound, z-score
data = [
    ("CC(C)(C)OC(=O)CC[C@@]1(C(=O)NCCN2CCOCC2)N=C(c2ccc(OCCCO)cc2)O[C@@H]1c1ccccc1N=[N+]=[N-]", -0.849),
    ("COc1ccc(C(=O)Nc2ccc(CN3C(=O)[C@@]4(O[C@@H](CC(=O)N5CCC[C@H]5CO)[C@H]([Si](C)(C)c5ccc(OC)cc5)[C@H]4C)c4ccccc43)cc2)cc1", -2.5),
    ("COc1ccc([Si](C)(C)[C@H]2[C@H](CCO)O[C@@]3(C(=O)N(C)c4c(Br)cc(C)cc43)[C@@H]2C)cc1", -2.69),
    ("O=C(NCC(F)(F)F)[C@@H]1c2ccccc2C(=O)N(C2CCCCC2)[C@H]1c1ccc(CO)cc1", -0.515),
    ("O=C1NCC(=O)N2[C@@H]1C[C@@H](C(=O)O)[C@H]2c1cccc(OCCO)c1", 0.301),
]

Name the recorded z-score of the compound listed here: CCN(CC)c1ccc(N2CC=CC34O[C@@H]5/C=C\CCCOC(=O)C5[C@H]3C(=O)N(CCO)[C@@H]4C2=O)cc1 (stereo not given in full)
0.727

Respond only with z-score recorded for "CC(C)(C)C(=O)N[C@@H](c1ccc(Cl)cc1)[C@]1(C)C[C@H]1C1CCCCC1"
-1.22

Hello, please tell me recorded z-score for this one: CC(C)C[C@H]1NC(=O)[C@@]23C(=O)N[C@@H](Cc4ccccc4)C2[C@H](C)[C@@]2(C)O[C@H]2C3/C=C/C/C=C\CNC(=O)[C@H](Cc2ccccc2)NC1=O (stereo not given in full)
-0.207

Write down z-score measured for item "COC(=O)[C@@]1(Cc2ccccc2)[C@H]2c3cc(C(=O)N4CCCC4)n(CC4CC4)c3C[C@H]2CN1C(=O)c1ccccc1"
-0.39

State, in one line, measured z-score of O=C1OCCC/C=C\[C@H]2OC34C=CCN(Cc5ccccc5)C(=O)[C@H]3N(CCCCCCO)C(=O)[C@@H]4C12 (stereo not given in full)
1.85

Provide measured z-score value, entry: "CN(C)CCCNC(=O)[C@@]1(C)c2ccccc2C(=O)N(Cc2cc(F)cc(C(F)(F)F)c2)[C@H]1c1ccc(CO)cc1"
-1.29

// Input: "COCCn1c(C(=O)N2CCCC2)cc2c1C[C@H]1CN(C(=O)c3ccccc3)[C@@](Cc3ccc(F)cc3)(C(=O)OC)[C@@H]21" . Output its z-score only.
-1.21

Consider the compound COc1cc(CO)cc(I)c1O[C@H]1C=C(C(=O)NCCO)C[C@@H](N(CCN2CCOCC2)C(=O)C2CCOC2)[C@@H]1O (stereo not given in full) and give its recorded z-score.
0.317

State, in one line, measured z-score of "COc1ccc([C@H]2OC[C@@H]3CC4(CC=CC4)C(=O)N32)cc1"
-0.58

Report z-score for "COCC(=C=CC[C@H](O)c1ccccc1OCCO)C[C@H](O)c1cc(Cl)cc(Cl)c1O"
-2.93
